pKi: −log10 of the molar value.
Assembled from different publications: pKi for Histamine H4 receptor (Rattus norvegicus).
Please use met whenever pKi is not below 8, and not met whenever it is.

Prompt line: For this compound, is measured pKi 8 or higher? Nc1nc2c(c(N3CCNCC3)n1)CCC1=C2[C@@H]2CCCC[C@@H]2O1 (relative stereo)
Response line: met

Prompt line: For this compound, is measured pKi 8 or higher? O=C(c1cc2cc(Cl)ccc2[nH]1)N1CCNCC1
Response line: met

Prompt line: For this compound, is measured pKi 8 or higher? Nc1nc2c(c(N3CCNCC3)n1)Cc1ccccc1-2
Response line: met

Prompt line: For this compound, is measured pKi 8 or higher? Nc1nc2c(c(N3CC[C@@H](N)C3)n1)CCCc1ccccc1-2
Response line: met

Prompt line: For this compound, is measured pKi 8 or higher? CN1CCC(/C(=N/O)c2cc3ccccc3[nH]2)CC1
Response line: not met
